inhibition at 1 µM overview
molecular target: σ2-receptor (Mus musculus); construct: brains from sigma receptor type I (sigma-1) knockout mice were homogenized; from tissue; host or cells: brain membranes of sigma-1 knockout mice; assay: Sigma-2 receptor binding, [3H]-DTG, brains from sigma-1 knockout mice; conditions: 2 h; tested compound at 10^-6 M; [3H]-DTG 3 nM; read-out: binding sigma-2 (*) % of radioactively labeled compound replaced by the tested compound
Counter-ions that a name gives are not always drawn.
PROPERTY_LABEL: inhibition at 1 µM

[
  {
    "MOLECULE": "c1ccc(-n2ncc3c2CCC3CCN2CCCC2)cc1 (stereo not drawn) [Example 40, oxalate]",
    "PROPERTY_LABEL": "inhibition at 1 µM",
    "RESULT": "97.3%"
  },
  {
    "MOLECULE": "CN(CCC1CCCc2c1cnn2-c1ccc(F)cc1)Cc1ccccc1 (stereo not drawn)",
    "PROPERTY_LABEL": "inhibition at 1 µM",
    "RESULT": "99.3%"
  },
  {
    "MOLECULE": "CN(CCC1CCCc2c1cnn2C)Cc1ccccc1.O=C(O)C(=O)O (stereo not drawn) [Example 62, oxalate]",
    "PROPERTY_LABEL": "inhibition at 1 µM",
    "RESULT": "93.5%"
  },
  {
    "MOLECULE": "C[C@@H]1CN(CCC2CCCc3c2cnn3-c2ccccc2)C[C@H](C)O1.O=C(O)C(=O)O (stereo partly drawn) [Example 49, oxalate]",
    "PROPERTY_LABEL": "inhibition at 1 µM",
    "RESULT": "94.6%"
  },
  {
    "MOLECULE": "O=C(O)C(=O)O.c1ccc(-n2ncc3c2CCC3CCN2CCOCC2)cc1 (stereo not drawn) [Example 31, oxalate]",
    "PROPERTY_LABEL": "inhibition at 1 µM",
    "RESULT": "88.7%"
  },
  {
    "MOLECULE": "O=C(O)C(=O)O.c1ccc(C2CCN(CCC3CCCc4c3cnn4-c3ccccc3)CC2)cc1 (stereo not drawn) [Example 9, oxalate]",
    "PROPERTY_LABEL": "inhibition at 1 µM",
    "RESULT": "107%"
  },
  {
    "MOLECULE": "Cn1ncc2c1CCCC2CCN1Cc2ccccc2C1.O=C(O)C(=O)O (stereo not drawn) [Example 60, oxalate]",
    "PROPERTY_LABEL": "inhibition at 1 µM",
    "RESULT": "88.2%"
  },
  {
    "MOLECULE": "C(/CN1CCCCCC1)=C1/CCCc2c1cnn2-c1ccccc1.O=C(O)C(=O)O [Example 16, oxalate]",
    "PROPERTY_LABEL": "inhibition at 1 µM",
    "RESULT": "93%"
  },
  {
    "MOLECULE": "C(/CN1CCCC(c2ccccc2)C1)=C1/CCCc2c1cnn2-c1ccccc1 (stereo not drawn)",
    "PROPERTY_LABEL": "inhibition at 1 µM",
    "RESULT": "67.4%"
  },
  {
    "MOLECULE": "c1ccc(-n2ncc3c2CCC3CCn2ccnc2)cc1 (stereo not drawn)",
    "PROPERTY_LABEL": "inhibition at 1 µM",
    "RESULT": "22.8%"
  },
  {
    "MOLECULE": "c1ccc(CN2CCN(CCC3CCCc4c3cnn4-c3ccccc3)CC2)cc1 (stereo not drawn)",
    "PROPERTY_LABEL": "inhibition at 1 µM",
    "RESULT": "70.2%"
  },
  {
    "MOLECULE": "Clc1ccc(-n2ncc3c2CCCC3CCN2CCOCC2)cc1Cl.O=C(O)C(=O)O (stereo not drawn) [Example 7, oxalate]",
    "PROPERTY_LABEL": "inhibition at 1 µM",
    "RESULT": "98.1%"
  },
  {
    "MOLECULE": "O=C(O)C(=O)O.c1ccc(-n2ncc3c2CCCC3CCN2Cc3ccccc3C2)cc1 (stereo not drawn) [Example 56, oxalate]",
    "PROPERTY_LABEL": "inhibition at 1 µM",
    "RESULT": "109%"
  },
  {
    "MOLECULE": "C(/CN1CCCCC1)=C1/CCCc2c1cnn2-c1ccccc1",
    "PROPERTY_LABEL": "inhibition at 1 µM",
    "RESULT": "77%"
  },
  {
    "MOLECULE": "O=C(O)C(=O)O.c1ccc(-n2ncc3c2CCC3CCN2CCc3ccccc3C2)cc1 (stereo not drawn) [Example 44, oxalate]",
    "PROPERTY_LABEL": "inhibition at 1 µM",
    "RESULT": "99.4%"
  },
  {
    "MOLECULE": "Cn1ncc2c1CCCC2CCN1CCC(c2ccccc2)CC1.O=C(O)C(=O)O (stereo not drawn) [Example 58, oxalate]",
    "PROPERTY_LABEL": "inhibition at 1 µM",
    "RESULT": "100%"
  },
  {
    "MOLECULE": "O=C(O)C(=O)O.c1ccc(-n2ncc3c2CCCC3CCN2CCCCC2)cc1 (stereo not drawn) [Example 14, oxalate]",
    "PROPERTY_LABEL": "inhibition at 1 µM",
    "RESULT": "89%"
  },
  {
    "MOLECULE": "C[C@@H]1CN(CCC2CCCc3c2cnn3-c2ccc(F)cc2)C[C@H](C)O1.O=C(O)C(=O)O (stereo partly drawn) [Example 68, oxalate]",
    "PROPERTY_LABEL": "inhibition at 1 µM",
    "RESULT": "99.8%"
  },
  {
    "MOLECULE": "C(/CN1CCC2(CC1)OCc1ccccc12)=C1/CCCc2c1cnn2-c1ccccc1.O=C(O)C(=O)O [Example 19, oxalate]",
    "PROPERTY_LABEL": "inhibition at 1 µM",
    "RESULT": "91%"
  },
  {
    "MOLECULE": "CN(CCC1CCCc2c1cnn2-c1ccccc1)Cc1ccccc1 (stereo not drawn)",
    "PROPERTY_LABEL": "inhibition at 1 µM",
    "RESULT": "100%"
  },
  {
    "MOLECULE": "C[C@@H]1CN(CCC2CCc3c2cnn3-c2ccccc2)C[C@H](C)O1.O=C(O)C(=O)O (stereo partly drawn) [Example 47, oxalate]",
    "PROPERTY_LABEL": "inhibition at 1 µM",
    "RESULT": "95.9%"
  },
  {
    "MOLECULE": "C(/CN1CCOCC1)=C1/CCCc2c1cnn2-c1ccccc1",
    "PROPERTY_LABEL": "inhibition at 1 µM",
    "RESULT": "39%"
  },
  {
    "MOLECULE": "C(/CN1CCC(c2ccccc2)CC1)=C1/CCCc2c1cnn2-c1ccccc1",
    "PROPERTY_LABEL": "inhibition at 1 µM",
    "RESULT": "83.8%"
  },
  {
    "MOLECULE": "c1ccc(C2CCN(CCC3CCc4c3cnn4-c3ccccc3)CC2)cc1 (stereo not drawn)",
    "PROPERTY_LABEL": "inhibition at 1 µM",
    "RESULT": "87.9%"
  }
]

====

inhibition at 1 µM listing for selected molecules.
target: σ2-receptor (Mus musculus, UniProt Q8VD00); construct: brains from sigma receptor type I (sigma-1) knockout mice were homogenized; from tissue; host or cells: brain membranes of sigma-1 knockout mice; experiment: Sigma-2 receptor binding, [3H]-DTG, brains from sigma-1 knockout mice; settings: 2 h; tested compound at 10^-6 M; [3H]-DTG 3 nM; read-out: binding sigma-2 (*) % of radioactively labeled compound replaced by the tested compound
Sequence (Q8VD00 whole entry): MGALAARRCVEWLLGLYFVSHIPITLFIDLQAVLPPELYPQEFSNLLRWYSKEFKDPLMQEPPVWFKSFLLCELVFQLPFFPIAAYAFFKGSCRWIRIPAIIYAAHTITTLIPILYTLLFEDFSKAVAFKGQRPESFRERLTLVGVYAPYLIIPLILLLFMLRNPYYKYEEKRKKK
Where a name gives a salt, the structure may show the parent alone.
PROPERTY_LABEL: inhibition at 1 µM (%)

[
  {
    "MOLECULE": "C(/CN1CCC(c2ccccc2)C1)=C1/CCCc2c1cnn2-c1ccccc1 (centres unmarked) [Example 24]",
    "NUMERIC_VALUE": 103
  },
  {
    "MOLECULE": "c1ccc(-n2ncc3c2CCC3CCN2CCCCC2)cc1 (centres unmarked) [Example 37]",
    "NUMERIC_VALUE": 79.9
  },
  {
    "MOLECULE": "O=C(O)C(=O)O.c1ccc(-n2ncc3c2CCC3CCN2Cc3ccccc3C2)cc1 (centres unmarked) [Example 35, oxalate]",
    "NUMERIC_VALUE": 26.4
  },
  {
    "MOLECULE": "CN(CCC1CCc2c1cnn2-c1ccccc1)Cc1ccccc1 (centres unmarked) [Example 52]",
    "NUMERIC_VALUE": 104
  },
  {
    "MOLECULE": "Clc1ccc(-n2ncc3c2CCCC3CCN2CCC(c3ccccc3)CC2)cc1Cl (centres unmarked) [Example 4, oxalate]",
    "NUMERIC_VALUE": 98
  },
  {
    "MOLECULE": "O=C(O)C(=O)O.c1ccc(-n2ncc3c2CCC3CCN2CCC3(CC2)OCc2ccccc23)cc1 (centres unmarked) [Example 51, oxalate]",
    "NUMERIC_VALUE": 113
  },
  {
    "MOLECULE": "O=C(O)C(=O)O.c1ccc(-n2ncc3c2CCCC3CCN2CCC3(CC2)OCc2ccccc23)cc1 (centres unmarked) [Example 12, oxalate]",
    "NUMERIC_VALUE": 98.8
  },
  {
    "MOLECULE": "Fc1ccc(-n2ncc3c2CCCC3CCN2Cc3ccccc3C2)cc1 (centres unmarked) [Example 70]",
    "NUMERIC_VALUE": 108
  }
]
